- assay-summary: Cell viability of B16 melanoma 4A5 cells
- Format: cell-based, murine
- assay-setup: mouse, 10 µM, B16 4A5 cells
Each entry below carries its reported viability at 72 h, 10 µM.
Could you write the number and then its unit?

These solved cases illustrate the format of a correct answer.
CCCCCCCCCCCCOC1=C(OCC(O)CO)C(=O)O[C@@H]1[C@@H](O)CO (stereo partly drawn) :: 87.3%
CCCCCCCCCCCCCCOC1=C(OCC(O)CO)C(=O)O[C@@H]1[C@@H](O)CO (stereo partly drawn) :: 62.6%
Oc1ccc(O)cc1 [Hydroquinone, reference compound] :: 85.2%
CCCCCCCCCCOC1=C(OCC(O)CO)[C@@H]([C@@H](O)CO)OC1=O (stereo partly drawn) [compound 10, 2-O-decyl-3-O-(2,3-dihydroxypropyl)-AsA] :: 85.9%
CCCCCCCCCCCCCOC1=C(OCC(O)CO)C(=O)O[C@@H]1[C@@H](O)CO (stereo partly drawn) :: 84.3%
CCCCCCCCCOC1=C(OCC(O)CO)C(=O)O[C@@H]1[C@@H](O)CO (stereo partly drawn) [compound 23, 2-O-(2,3-dihydroxypropyl)-3-O-nonyl-AsA] :: 90.6%

Please find the next compound below.
Prompt: # query: viability at 72 h, 10 µM of entry CCCCCCCCCCCCCOC1=C(OCC(O)CO)[C@@H]([C@@H](O)CO)OC1=O (stereo partly drawn)
Response: 87.2%

---

# inhibition at 3000 µM per record follows
- Test system: B16 melanoma 4A5 cells
- assay-summary: Theophylline-stimulated melanogenesis inhibition (melanin content)
- Format: cell-based, murine
- assay-setup: Mus musculus; 3000 µM, theophylline-stimulated B16 4A5 cells, 72 h
The reply should be a number in %, with the unit left off.

CCCCCOC1=C(OCC(O)CO)[C@@H]([C@@H](O)CO)OC1=O (stereo partly shown) [compound 5, 3-O-(2,3-dihydroxypropyl)-2-O-pentyl-AsA] :: 81.9
O=C1O[C@H]([C@@H](O)CO)C(O)=C1O[C@H]1O[C@H](CO)[C@@H](O)[C@H](O)[C@H]1O [2-O-α-D-Glucopyranosyl-AsA, reference compound] :: 15
O=C1O[C@H]([C@@H](O)CO)C(OCC(O)CO)=C1O (stereo partly shown) [compound 1, 3-O-(2,3-dihydroxypropyl)-AsA] :: 0.5
O=C1O[C@H]([C@H](O)CO)C(O)=C1O [Erythrobic acid, reference compound] :: 92.6
O=C1O[C@H]([C@@H](O)CO)C(O)=C1O [AsA, L-ascorbic acid] :: 3.8

Prompt: Name the reported inhibition at 3000 µM value associated with the compound CCCOC1=C(OCC(O)CO)[C@@H]([C@@H](O)CO)OC1=O (stereo partly shown) [compound 3, 3-O-(2,3-dihydroxypropyl)-2-O-propyl-AsA]
Response: 35.9

Prompt: Endpoint output: inhibition at 3000 µM of CCCOC1=C(OCC(O)CO)C(=O)O[C@@H]1[C@@H](O)CO (stereo partly shown) [compound 17, 2-O-(2,3-dihydroxypropyl)-3-O-propyl-AsA] . Value?
Response: 23.2

---

- System: B16 melanoma 4A5 cells
- assay-summary: Theophylline-stimulated melanogenesis inhibition (melanin content)
- Type: cell-based, murine
- assay-setup: Mus musculus; 3000 µM, theophylline-stimulated B16 4A5 cells, 72 h
# if value of inhibition at 3000 µM reaches 60%, tag Fulfilled; if it stays below, tag Not fulfilled

Below, 3 compounds whose answers are already recorded.
OC[C@H]1O[C@@H](Oc2ccc(O)cc2)[C@H](O)[C@@H](O)[C@@H]1O [Arbutin, reference compound] :: Fulfilled
O=C1O[C@H]([C@@H](O)CO)C(O)=C1OP(=O)(O)O [Magnesium L-ascorbyl-2-phosphate, reference compound] :: Not fulfilled
CCCCCCOC1=C(OCC(O)CO)C(=O)O[C@@H]1[C@@H](O)CO (stereo partly drawn) [compound 20, 2-O-(2,3-dihydroxypropyl)-3-O-hexyl-AsA] :: Fulfilled

Prompt: Hi team, for O=C1O[C@H]([C@@H](O)CO)C(O)=C1OCC(O)CO (stereo partly drawn) [compound 15, 2-O-(2,3-dihydroxypropyl)-AsA] , is the recorded inhibition at 3000 µM at or above 60%?
Response: Not fulfilled

Prompt: Evaluate CCCCOC1=C(OCC(O)CO)C(=O)O[C@@H]1[C@@H](O)CO (stereo partly drawn) [compound 18, 3-O-butyl-2-O-(2,3-dihydroxypropyl)-AsA] : inhibition at 3000 µM at minimum 60%?
Response: Fulfilled
